inhibition at 1 µM: recorded values
TARGET_SYSTEM: hTLR9 (Homo sapiens, UniProt Q9NR96)
Construct: expressed in transfected cells; host or cells: HEK-Blue-hTLR9 cells (HEK293)
Sequence (Q9NR96 26-1032): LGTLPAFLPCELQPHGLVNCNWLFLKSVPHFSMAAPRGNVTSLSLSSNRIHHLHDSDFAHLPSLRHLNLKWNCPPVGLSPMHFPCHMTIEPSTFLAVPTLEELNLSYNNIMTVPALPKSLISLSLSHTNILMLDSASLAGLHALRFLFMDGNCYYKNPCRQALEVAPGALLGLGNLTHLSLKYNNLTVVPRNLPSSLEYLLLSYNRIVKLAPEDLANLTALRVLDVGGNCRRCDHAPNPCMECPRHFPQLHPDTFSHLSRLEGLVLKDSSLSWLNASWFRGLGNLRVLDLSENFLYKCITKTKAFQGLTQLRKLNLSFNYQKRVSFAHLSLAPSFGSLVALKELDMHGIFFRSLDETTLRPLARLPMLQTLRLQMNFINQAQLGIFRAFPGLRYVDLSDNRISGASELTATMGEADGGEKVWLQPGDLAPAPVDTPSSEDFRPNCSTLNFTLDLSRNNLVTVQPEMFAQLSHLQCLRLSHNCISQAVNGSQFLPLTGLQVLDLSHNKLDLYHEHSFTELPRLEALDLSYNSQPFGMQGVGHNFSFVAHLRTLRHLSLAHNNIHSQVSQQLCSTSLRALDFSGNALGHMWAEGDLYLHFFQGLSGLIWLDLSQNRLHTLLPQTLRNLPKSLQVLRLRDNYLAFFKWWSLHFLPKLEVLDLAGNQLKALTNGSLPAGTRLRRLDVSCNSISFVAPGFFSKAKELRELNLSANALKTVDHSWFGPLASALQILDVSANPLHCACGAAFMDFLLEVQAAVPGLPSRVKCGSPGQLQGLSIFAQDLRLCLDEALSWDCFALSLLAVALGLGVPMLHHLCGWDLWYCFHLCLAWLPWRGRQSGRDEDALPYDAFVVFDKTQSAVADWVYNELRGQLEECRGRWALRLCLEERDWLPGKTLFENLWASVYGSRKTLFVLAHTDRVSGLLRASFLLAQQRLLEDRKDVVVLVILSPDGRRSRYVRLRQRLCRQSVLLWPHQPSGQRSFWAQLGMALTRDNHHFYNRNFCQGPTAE
ASSAY_REMARKS: hTLR9 antagonism (SEAP inhibition assay) in HEK-Blue-hTLR9 (HEK293) cells, ODN-2006 stimulated
Format: cell-based
STUDY_CONDITIONS: HEK-Blue hTLR9, 1 μM; SEAP, HEK-Blue-hTLR9 cells; read-out: hTLR9 inhibitory activity (% at 1 μM)
Report the figure in % without appending any unit label.

> print(dat)
                              smiles.string  assay.result
1  Cc1cc2[nH]c(CN3CCC4(CC3)CC(C)C4)cc2c(-c2ccc(N3CCN(C(C)C)CC3)cc2)n1          96.7

Which inhibition at 1 µM reading was recorded for the molecule `CC(C)N1CCN(c2cccc(-c3nccc4[nH]c(CN5CCOCC5)cc34)c2)CC1` ?
96.9

Dear colleague, I am looking for the recorded inhibition at 1 µM of the following molecule: `CN1CCN(c2ccc(-c3nccc4c3cc(CN3CCOCC3)n4C)cc2)CC1`
100

inhibition at 1 µM lookup needed for `Cc1cc2[nH]c(CCN3CCCCC3)cc2c(-c2ccc(N3CCN(C(C)C)CC3)cc2)n1` , thanks.
78

Need inhibition at 1 µM of `CC(C)N1CCC(Oc2ccc(-c3nccc4[nH]c(CN5CCOCC5)cc34)cc2)CC1` , thanks.
99.5

# query: inhibition at 1 µM of entry `Cc1cc2[nH]c(CCN3CCOCC3)cc2c(-c2ccc(N3CCN(C)CC3)cc2)n1`
100

Given the molecule `CN1CCN(c2ccc(-c3nc(C4CC4)cc4[nH]c(CN5CCOCC5)cc34)cc2)CC1` , what is its reported inhibition at 1 µM?
82

What does the data say about its inhibition at 1 µM? Entry: `Cc1cc2c(cc(CCN3CCOCC3)n2C)c(-c2ccc(N3CCN(C(C)C)CC3)cc2C(F)(F)F)n1`
91.5

These entries and their values trace back to patent US9643967B2.
